- study.system: Androgen receptor (AR) (Homo sapiens, UniProt P10275, T878A)
- Construct: 5.5×10^5 LNCap cells were injected into each well of a 6-well plate; endogenous in cells; host or cells: LNCaP
- Sequence (P10275 whole entry T878A): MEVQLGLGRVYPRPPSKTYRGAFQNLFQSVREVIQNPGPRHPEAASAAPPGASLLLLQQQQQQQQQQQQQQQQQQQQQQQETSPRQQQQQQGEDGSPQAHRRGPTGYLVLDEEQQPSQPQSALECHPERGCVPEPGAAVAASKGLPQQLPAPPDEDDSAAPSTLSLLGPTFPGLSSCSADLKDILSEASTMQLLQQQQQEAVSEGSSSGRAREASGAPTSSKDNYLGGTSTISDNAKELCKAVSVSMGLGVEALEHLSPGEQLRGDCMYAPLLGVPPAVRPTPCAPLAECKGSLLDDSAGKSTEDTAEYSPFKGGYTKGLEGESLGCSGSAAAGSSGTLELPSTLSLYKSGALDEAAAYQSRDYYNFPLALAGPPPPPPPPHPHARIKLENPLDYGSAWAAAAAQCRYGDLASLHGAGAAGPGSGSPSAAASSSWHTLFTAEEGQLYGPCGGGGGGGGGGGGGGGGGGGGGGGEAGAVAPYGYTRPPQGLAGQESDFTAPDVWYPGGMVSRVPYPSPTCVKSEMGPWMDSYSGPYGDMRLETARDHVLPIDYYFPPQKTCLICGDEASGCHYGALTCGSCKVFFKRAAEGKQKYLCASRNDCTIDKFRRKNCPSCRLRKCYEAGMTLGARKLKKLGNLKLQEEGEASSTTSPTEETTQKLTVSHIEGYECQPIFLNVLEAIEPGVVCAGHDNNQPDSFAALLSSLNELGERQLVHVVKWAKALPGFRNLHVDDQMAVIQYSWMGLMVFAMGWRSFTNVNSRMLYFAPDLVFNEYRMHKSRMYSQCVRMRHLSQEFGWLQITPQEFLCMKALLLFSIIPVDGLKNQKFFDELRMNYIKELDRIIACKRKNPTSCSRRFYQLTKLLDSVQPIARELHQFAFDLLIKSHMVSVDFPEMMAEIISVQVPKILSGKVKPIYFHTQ
- procedure.summary: Assessment of AR proteolytic activity (Western blotting of LNCap cell lysates)
- Format: cell-based
- condition: 24 hours of treatment, Western blotting quantified with Image J
quantity: Degradation (1 μM treated in LNCaP, % AR remaining) (%)

compound	readout.units	value.reported
CC1(C)C(NC(=O)c2ccc(N3CCC(CN4CCN(c5ccc6c(=O)n(C7CCC(=O)NC7=O)nnc6c5)CC4)CC3)cc2)C(C)(C)C1Oc1ccc(C#N)c(Cl)c1 (stereo not drawn) [Example 165]	%	8
CC1(C)C(NC(=O)c2ccc(N3CCN(CCCC4CCN(C(=O)COc5ccc6nnn(C7CCC(=O)NC7=O)c(=O)c6c5)CC4)CC3)cc2)C(C)(C)C1Oc1ccc(C#N)c(Cl)c1 (stereo not drawn) [Example 45]	%	21.1
CC1(C)C(NC(=O)c2ccc(C#CCN3CCN(c4ccc5nnn(C6CCC(=O)NC6=O)c(=O)c5c4)CC3)nc2)C(C)(C)C1Oc1ccc(C#N)c(Cl)c1 (stereo not drawn) [Example 178]	%	23
